# experimental_protocol: NCI Yeast Anticancer Drug Screen. Data for the mgt1 strain (AID 153)
# study_conditions: S. cerevisiae mgt1 mutant growth inhibition; at 11.0 µM
# Procedure: Growth inhibition of yeast strains with defined genetic alterations is measured as a screen for potential anti-cancer activity. Selected strains with alterations in DNA damage repair or cell cycle control were exposed to compounds and growth inhibition was measured relative to vehicle treated controls. The strain used in this assay is mgt1
Compounds without any hit were thinned out: in the full panel of roughly 79,000, 15% have a hit. Calls of active or inactive are those of the source. Cut-off read from the data, not from the text of the source: active = growth inhibition above about 70%; inactive = the rest.
Outcome codes: active, inactive

- compound: "CCCCN(CCCC)C(=O)/C=C/c1ccccc1"
  discrete_label: "inactive"
- compound: "COc1cc(/C=C2\\CCC/C(=C\\c3ccc(O)c(OC)c3)C2=O)ccc1O"
  discrete_label: "inactive"
- compound: "Cc1c(C)c(C)c(CSC(=N)N)c(C)c1C"
  discrete_label: "inactive"
- compound: "Cc1nc2ccccc2nc1NNc1ccccc1"
  discrete_label: "inactive"
- compound: "O=[N+]([O-])c1ccc2c(c1)/C(=N/N=C1c3ccccc3Cc3ccccc31)c1cc([N+](=O)[O-])cc([N+](=O)[O-])c1-2"
  discrete_label: "active"
- compound: "CCCCCCCCCCCCCCCCOP(=O)(O)OCC(N)C(=O)O (stereo unspecified)"
  discrete_label: "inactive"
- compound: "COC(=O)/C=C(/CC(=O)OC)C(=O)OC"
  discrete_label: "inactive"
- compound: "O=C1C=C(c2ccccc2)OC1(c1ccccc1)N1CCOCC1 (stereo unspecified)"
  discrete_label: "inactive"
- compound: "COC1CCC(O)C(/C=C/[N+](=O)[O-])C1 (stereo unspecified)"
  discrete_label: "active"
- compound: "CCN(CC)CCNc1ccc([N+](=O)[O-])c2nc3ccccc3c(N)c12"
  discrete_label: "inactive"
- compound: "CCOC1Oc2ccccc2-c2nc(N)ncc21 (stereo unspecified)"
  discrete_label: "inactive"

----------
# experimental_protocol: NCI Yeast Anticancer Drug Screen. Data for the rad50 strain (AID 155)
# study_conditions: S. cerevisiae rad50 strain growth inhibition; at 33.0 µM; hits give high values
About 79,000 compounds went through this panel and 15% of them were active in at least one assay; those are over-represented in the sample as a whole.
Response key: Y means growth inhibition >= 40%; N means growth inhibition < 40%.

- molecule: "Oc1[nH]c2ccccc2c1N=NC(=S)N1CCCCC1"
  discrete_label: "Y"
- molecule: "CCCCCCCCCCCC1N=C(N)NC(CCCO)=C1C(=O)OC (stereo not given)"
  discrete_label: "Y"
- molecule: "O/N=C\\c1c(O)ccc2ccccc12"
  discrete_label: "Y"
- molecule: "C[CH2][Sn]([CH2]C)([O]C(=O)C(N)Cc1ccccc1)[O]C(=O)C(N)Cc1ccccc1 (stereo not given)"
  discrete_label: "N"
- molecule: "CN(C)N=Nc1ccccc1C(=O)NC#N"
  discrete_label: "Y"
- molecule: "CNC(=O)OCc1c(COC(=O)NC)c2n(c1C)-c1ccc(OC)cc1CCC2"
  discrete_label: "Y"
- molecule: "NC(=S)NC(=S)Nc1ccccc1"
  discrete_label: "N"
- molecule: "CC(=O)Nc1ccc2c(c1)Cc1cc(N=C3C=CC(=O)O3)ccc1-2"
  discrete_label: "Y"
- molecule: "COc1ccc(/C=C2\\NC(=S)N(/C=C3\\C(=O)Oc4ccccc4C3=O)C2=O)cc1"
  discrete_label: "N"
- molecule: "CN(C)CCNC(=O)c1cccc2c1Oc1c(cccc1[N+](=O)[O-])O2"
  discrete_label: "Y"
- molecule: "OCC(CO)C(c1cccc2ccccc12)c1cccc2ccccc12"
  discrete_label: "Y"
- molecule: "CN(C)[C@@H]1C(=O)C(C(N)=O)=C(O)[C@@]2(O)C(=O)C3=C(O)c4c(O)cccc4C[C@H]3C[C@@H]12"
  discrete_label: "Y"
- molecule: "COC(=O)NC1C(C)OC(OC2C/C=C(/C)C3C=CC4C(OC5CC(OC6CC(O)C(OC7CC(O)C(OC)C(C)O7)C(C)O6)C(O)C(C)O5)C(C)CC(C)C4C3(C)/C(O)=C3\\C(=O)OC4(CC(C)C(CO)=CC4/C=C\\2C)C3=O)CC1(C)[N+](=O)[O-] (stereo not given)"
  discrete_label: "N"
- molecule: "Cc1ccc(Sc2ccccc2N)cc1"
  discrete_label: "N"
- molecule: "O=C1OC(OC/C(Br)=C(\\Br)COC2OC(=O)C(Cl)=C2Cl)C(Cl)=C1Cl (stereo not given)"
  discrete_label: "N"
- molecule: "C=C(Cl)COC(=O)Nc1cccc(Cl)c1"
  discrete_label: "Y"
- molecule: "C[C@@](O)(/C=C/[C@H]1CC=CC(=O)O1)[C@@H](C[C@@H](O)\\C=C/C=C\\C=C\\CO)OP(=O)(O)O"
  discrete_label: "Y"
- molecule: "Cc1cc(=O)oc2c(C)c3occc(=O)c3cc12"
  discrete_label: "Y"
- molecule: "CC(=O)OC1CC2C(C)(C)C(=O)C=C[C@]2(C)C2CCC3(C)C(=CCC3[C@H](CO)C[C@H](O)C(=O)C(C)(C)O)[C@]12C (stereo not given in full)"
  discrete_label: "N"
- molecule: "CCN(CC)CCNc1ccc([N+](=O)[O-])c2nc3ccccc3c(N)c12"
  discrete_label: "Y"

----------
# experimental_protocol: NCI Yeast Anticancer Drug Screen. Data for the rad14 strain (AID 159)
# study_conditions: S. cerevisiae rad14 strain growth inhibition; at 3.7 µM
This is part of a sample that, as a whole, favours compounds with a hit. Of some 79,000 tested, about 15% had one in any assay. Active and inactive are the calls of the source. No stated cut-off is given here; in the data, active means growth inhibition above about 70%; inactive means the rest.
Outcome codes: active, inactive

- compound: "O=[N+]([O-])c1cc(Cl)cnc1Br"
  discrete_label: "inactive"
- compound: "CCOC1(c2cccc([N+](=O)[O-])c2)c2ccccc2Oc2ccccc21"
  discrete_label: "inactive"
- compound: "Oc1cccc2cc(Cl)cnc12"
  discrete_label: "inactive"
- compound: "NC1CCCCC1N.Nc1c(N=Nc2ccc(-c3ccc(N=Nc4cc(S(=O)(=O)[O-])c5ccccc5c4N)cc3)cc2)cc(S(=O)(=O)[O-])c2ccccc12.[OH3+].[OH3+].[Pt+4]"
  discrete_label: "inactive"
- compound: "O=C(O)c1ccccc1/C=N/N=C1c2ccccc2-c2ccccc21"
  discrete_label: "inactive"
- compound: "OCC(CO)C(c1cccc2ccccc12)c1cccc2ccccc12"
  discrete_label: "inactive"
- compound: "COC(=O)NC1C(C)OC(OC2C/C=C(/C)C3C=CC4C(OC5CC(OC6CC(O)C(OC7CC(O)C(OC)C(C)O7)C(C)O6)C(O)C(C)O5)C(C)CC(C)C4C3(C)/C(O)=C3\\C(=O)OC4(CC(C)C(CO)=CC4/C=C\\2C)C3=O)CC1(C)[N+](=O)[O-] (configuration not stated)"
  discrete_label: "inactive"
- compound: "NCCNCCNc1ccc(NCCNCCN)c2c1C(=O)c1c(O)ccc(O)c1C2=O"
  discrete_label: "inactive"
- compound: "O=P(NC1CCCCC1)(OCc1ccccc1)OCc1ccccc1"
  discrete_label: "inactive"
- compound: "Cc1nc2ccc(N=NN(C)C)cc2[nH]1"
  discrete_label: "inactive"
- compound: "CCCCOC(=O)Nc1ccc(C)c(NC(=O)OCCCC)c1"
  discrete_label: "inactive"
- compound: "Clc1ccc(NCNC2Nc3ccccc3N2)cc1Cl"
  discrete_label: "inactive"
- compound: "CC(C)C(C)/C=C\\C(C)C1CCC2C3=CC=C4CC(O)CCC4(C)C3CCC21C (configuration not stated)"
  discrete_label: "inactive"
- compound: "CN1CCN(C(=O)/C=C/C(=O)c2ccccc2)CC1"
  discrete_label: "inactive"
- compound: "CC(C)OC(=O)Nc1ccc2nc(-c3cscn3)[nH]c2c1"
  discrete_label: "inactive"
- compound: "Nc1nc(N)c2nc(CNc3ccc(C(=O)NC(CCC(=O)O)C(=O)O)cc3F)cnc2n1 (configuration not stated)"
  discrete_label: "inactive"
- compound: "CS(=O)(=O)OCCN(CCOS(C)(=O)=O)c1ccc(C=Nc2ccc(-c3csc(COc4ccccc4)n3)cc2)cc1"
  discrete_label: "inactive"
- compound: "NC(=O)C(=O)NNc1ccccc1"
  discrete_label: "inactive"
- compound: "CCC(=O)c1cc(C(=O)C(=S)SC)cc(C(=O)C(=S)SC)c1"
  discrete_label: "inactive"
- compound: "Cc1cc(C(C)(C)CC(C)(C)C)ccc1O"
  discrete_label: "inactive"
- compound: "CCC(C)NC1=NCC(C)S1 (configuration not stated)"
  discrete_label: "inactive"
- compound: "Cc1ccc(CC2(OCCN(C)C)CCC(C(C)(C)C)CC2)cc1 (configuration not stated)"
  discrete_label: "inactive"
- compound: "Oc1[nH]c2ccccc2c1N=NC(=S)N1CCCCC1"
  discrete_label: "inactive"
- compound: "O=C(NCCCNCCN1C(=O)c2cccc3cc([N+](=O)[O-])cc(c23)C1=O)c1cc(-c2ccccc2)nc2ccccc12"
  discrete_label: "inactive"
- compound: "Nc1ncnc2c1ncn2C1OC(CO)CC1O (configuration not stated)"
  discrete_label: "inactive"
- compound: "Cn1c(-c2ccc(/C=N\\N3CCN(/N=C/c4ccc(-c5c[n+]6ccccc6n5C)cc4)CC3)cc2)c[n+]2ccccc12"
  discrete_label: "inactive"
- compound: "O=C(O)c1cc2ccc(Cl)cc2c(O)c1C1=CCCCC1"
  discrete_label: "inactive"
- compound: "O=c1ccc2ccccc2c2ccccc12"
  discrete_label: "inactive"
- compound: "CCOC(=O)C1=C(C)NC(C)=C(C(=O)OCCNC(=O)c2ccc(N=[N+]=[N-])cc2)C1c1ccccc1C(F)(F)F (configuration not stated)"
  discrete_label: "inactive"
- compound: "CCOC(=O)C1N=[N+](c2ccccc2)C(=O)/C1=C\\n1c(=S)[nH]c2ccc([N+](=O)[O-])cc21 (configuration not stated)"
  discrete_label: "inactive"
- compound: "CCCCc1ccc(-n2c(C)c(COC(=O)NC)c(COC(=O)NC)c2C)cc1"
  discrete_label: "inactive"
- compound: "CCCC(O)C1CC(C(C)C)CCC1C (configuration not stated)"
  discrete_label: "inactive"
- compound: "Cc1nc(Nc2ccccc2[N+](=O)[O-])sc1C(=O)CC(=O)C(=O)Nc1c(C(C)C)cccc1C(C)C"
  discrete_label: "inactive"
- compound: "NNC(=O)CCc1cc2ccccc2c2ccccc12"
  discrete_label: "inactive"
- compound: "CCCCCCOC(=O)NCCOC(=O)Nc1ccccc1"
  discrete_label: "inactive"
- compound: "Cc1csc(=S)n1OC(=O)NC1CCCCC1"
  discrete_label: "active"
- compound: "O=c1ccc(=O)n(-c2ccccc2)[nH]1"
  discrete_label: "inactive"
- compound: "CN(C)CCNC(=O)c1cccc2c1Oc1c(cccc1[N+](=O)[O-])O2"
  discrete_label: "inactive"
- compound: "CC(C)(C)C1=CC(=CC=C2C=CN(CCCCCCCCCCCO)C=C2)C=C(C(C)(C)C)C1=O"
  discrete_label: "inactive"
- compound: "CC[n+]1oc(C(=O)c2ccc(Cl)cc2)c(-c2ccccc2)c1-c1ccccc1.[Cl][Fe]([Cl])([Cl])[Cl]"
  discrete_label: "inactive"
- compound: "CN(CCN(C)Cc1ccccc1)Cc1ccccc1"
  discrete_label: "inactive"
- compound: "CC(C)(C)N=C(NO)c1ccccc1"
  discrete_label: "inactive"
